system: A549/ATCC NSCLC; assay: NCI-60 one-dose screen, 48 h (100 = growth as untreated, 0 = no growth, -100 = all killed); conditions: 10 µM unless noted
This is part of a sample that, as a whole, favours compounds with a hit. Of some 83,000 tested, about 20% had one in any assay. Calls of active or inactive are those of the source. The calls were made as follows: active = growth percent below 10; inactive = the rest.
Parameter: growth. Scope: all listed entries.

Ask: Hi! What's the reported growth for Nc1nc(-c2cccc([N+](=O)[O-])c2)c(N=Nc2ccccc2[N+](=O)[O-])s1 on A549/ATCC NSCLC?
Result: 36.1% (inactive)

Ask: Request: CSc1nccc(-c2c(-c3ccc(F)c(OCc4ccc(F)cc4)c3)nc3sccn23)n1
Result: 78.7% (inactive)

Ask: Request: CCOC(=O)Nc1cccc(-n2cnc3cc(-c4ccc(O)cc4)ccc32)c1
Result: 28.3% (inactive)

Ask: Request: Cc1cc(-c2ccc3nc(N)sc3c2)nc2ccc3[nH]ncc3c12
Result: 45.4% (inactive)

Ask: Request: Nc1nc(N)c2c(n1)NC(c1ccc(Cl)cc1)CC(c1ccc(Nc3nc(NCCO)nc(Nc4ccc(Cl)cc4)n3)cc1)=N2 (stereo not drawn)
Result: 52% (inactive)

Ask: Request: Cc1ccc(NC(=O)c2cc(/C=C/C(=O)NO)cc(C(F)(F)F)c2)cc1Nc1nccc(-c2cccnc2)n1
Result: 61.2% (inactive)

Ask: Request: C=CCn1c(SCC(=O)Nc2cccc(C(=O)/C=C/c3ccc(Cl)cc3)c2)nc2ccccc2c1=O
Result: 85.7% (inactive)

Ask: Request: C[C@@H]1C[C@H]2C(=O)OCC(NC(=O)[C@H](Cc3cc(F)cc(F)c3)NC(=O)Nc3ccc(Cl)cc3F)C(=O)N3CCC[C@H]3C(=O)N3CCCC[C@H]3C(=O)N[C@@H](C)C(=O)N2C1 (stereo partly drawn)
Result: 25.1% (inactive)
